tgt: Sentrin-specific protease 8 (Homo sapiens)
Sequence (Q96LD8 whole entry): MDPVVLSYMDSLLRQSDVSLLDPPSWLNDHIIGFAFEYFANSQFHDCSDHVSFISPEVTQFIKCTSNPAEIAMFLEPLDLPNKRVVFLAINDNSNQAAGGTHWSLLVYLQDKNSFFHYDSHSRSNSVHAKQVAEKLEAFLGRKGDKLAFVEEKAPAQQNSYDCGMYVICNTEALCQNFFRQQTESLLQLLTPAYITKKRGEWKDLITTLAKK
Format: functional
Activity calls are given as the source filed them.
// classify into active, inactive

Look over these answered cases.
CCCCc1ccc(NC(=O)Nc2cccnc2)cc1 ... active
CCC(C)n1c(NC(=O)c2ccccc2)c(C#N)c2nc3ccccc3nc21 (centres undefined) ... active
O=C(CCl)Oc1ccc2occ(C(=O)c3cccs3)c2c1 ... active

Please examine the following record next.
Inquiry: Record lookup: outcome of this test for COc1ccc(NC(=O)c2cc3ccccc3cc2O)cc1 ?
Reply text: inactive

====

tgt: SUMO-activating enzyme (Homo sapiens, UniProt Q9UBT2)
Sequence (Q9UBE0 whole entry): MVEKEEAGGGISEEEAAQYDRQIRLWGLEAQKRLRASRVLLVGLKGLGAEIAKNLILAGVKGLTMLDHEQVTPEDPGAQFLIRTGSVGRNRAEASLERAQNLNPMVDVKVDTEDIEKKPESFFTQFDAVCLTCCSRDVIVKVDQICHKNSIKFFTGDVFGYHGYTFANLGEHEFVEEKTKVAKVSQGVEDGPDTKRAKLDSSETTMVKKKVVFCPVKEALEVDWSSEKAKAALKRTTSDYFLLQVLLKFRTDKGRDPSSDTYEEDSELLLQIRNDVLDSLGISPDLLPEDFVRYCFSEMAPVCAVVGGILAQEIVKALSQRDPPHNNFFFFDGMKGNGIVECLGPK
Sequence (Q9UBT2 whole entry): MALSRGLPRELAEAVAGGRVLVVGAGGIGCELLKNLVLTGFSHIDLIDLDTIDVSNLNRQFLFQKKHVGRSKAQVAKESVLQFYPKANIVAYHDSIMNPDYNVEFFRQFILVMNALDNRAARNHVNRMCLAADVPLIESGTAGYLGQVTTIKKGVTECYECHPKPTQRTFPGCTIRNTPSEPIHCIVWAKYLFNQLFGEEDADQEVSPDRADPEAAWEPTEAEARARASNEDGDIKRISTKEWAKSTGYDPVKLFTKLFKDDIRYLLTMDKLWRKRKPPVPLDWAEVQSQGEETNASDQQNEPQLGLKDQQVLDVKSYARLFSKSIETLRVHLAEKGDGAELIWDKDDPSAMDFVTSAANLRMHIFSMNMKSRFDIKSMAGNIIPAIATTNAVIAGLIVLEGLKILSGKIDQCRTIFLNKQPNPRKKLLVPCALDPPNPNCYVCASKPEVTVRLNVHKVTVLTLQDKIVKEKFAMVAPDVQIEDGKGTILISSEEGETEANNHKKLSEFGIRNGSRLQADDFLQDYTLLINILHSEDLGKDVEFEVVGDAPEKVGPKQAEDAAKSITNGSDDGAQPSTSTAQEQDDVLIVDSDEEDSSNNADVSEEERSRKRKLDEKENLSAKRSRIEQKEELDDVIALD
measurementProtocol: blockers of UBC9-mediated SUMO conjugation – biochemical, AlphaScreen, SUMOylation inhibitor project, confirmation (AID 2018)
Assay type: functional
Activity calls are given as the source filed them. No stated cut-off is given here; in the data, actives have a measured IC50 and inactives only a lower limit.
For each entry below, report its IC50 value.

Answered examples (3):
COc1ccccc1NC(=O)Cn1c(O)c(N=NC(=O)c2ccccc2O)c2ccccc21 ... 6.52 µM (active)
CCC(C)n1c(NC(=O)c2ccccc2)c(C#N)c2nc3ccccc3nc21 (centres undefined) ... 3.51 µM (active)
CC1=C(C(=O)Nc2ccccc2)C(c2ccc(C)cc2)NC(Nc2nc3ccccc3o2)=N1 (centres undefined) ... 20.2 µM (active)

# context switch: different compound, same IC50
Inquiry: Please report the measured IC50 for N#Cc1c2nc3ccccc3nc2n2cc(NC(=O)c3ccc(F)cc3)ccc12
Reply text: 1.8 µM (active)
